# procedure.details: gradient 5% acetonitrile 3 min, to 50% in 2 min, to 85% in 15 min, held 3 min, 100 µL/min
# study.conditions: column: Zorbax Extend-C18 2.1 x 50 mm; eluents: water / acetonitrile, 0.1% formic acid
measured.metric: RP-LC retention time (s)
Response body: numeric value in s, unit text excluded.

Reference set, count: 3
Challenge: Value lookup for RP-LC retention time; key = CCCCCNC(=O)CN1c2ccc(F)cc2-c2ccccc2S1(=O)=O
Response given: 986

Challenge: Value lookup for RP-LC retention time; key = Cc1ccn2cc(-c3ccc(NC(=O)C(C)(C)C)cc3)nc2n1
Response given: 616

Challenge: Value lookup for RP-LC retention time; key = COC(=O)c1cc(S(=O)(=O)N2CCCC2C(=O)Nc2ccc(C#N)cc2)cn1C (stereo not given)
Response given: 841

---
Challenge: Value lookup for RP-LC retention time; key = Cc1noc(-c2cccc(OC3CN(C(=O)CN4C(=O)CCC4=O)C3)c2)n1
Response given: 762

Challenge: Value lookup for RP-LC retention time; key = O=C(Cn1cnc2nc(N3CCC(C(=O)NC4CC4)CC3)sc2c1=O)Nc1ccc2c(c1)OCO2
Response given: 637

Numbers sourced from the METLIN SMRT retention time set (Domingo-Almenara et al. 2019).
